Entries and their % left after 60 minutes Human Kidney Sonicate
assay: Stability in kidney preparations (human); format: in vitro ADME; settings: 15% solubilised in 5% Triton X-100; 60 minutes; * racemic compounds: figures based on stability of bio-active enantiomer
VALUE_KIND: % left after 60 minutes Human Kidney Sonicate (%)

[
  {
    "COMPOUND": "C[C@H](O)[C@@H]1C(=O)N2C(C(=O)O)=C(S/C=C/CN)C[C@H]12",
    "VALUE_OBSERVED": 7
  },
  {
    "COMPOUND": "C/C(=C\\CN)SC1=C(C(=O)O)N2C(=O)[C@H]([C@@H](C)O)[C@H]2C1 (racemic)",
    "VALUE_OBSERVED": 23
  },
  {
    "COMPOUND": "C/C(=C\\CN)SC1=C(C(=O)O)N2C(=O)[C@@H]([C@H](C)O)[C@H]2C1",
    "VALUE_OBSERVED": 13
  },
  {
    "COMPOUND": "C[C@@H](O)[C@H]1C(=O)N2C(C(=O)O)=C(S/C=C\\CN)C[C@H]12 (racemic)",
    "VALUE_OBSERVED": 39
  },
  {
    "COMPOUND": "C/C(=C/CN)SC1=C(C(=O)O)N2C(=O)[C@@H]([C@H](C)O)[C@H]2C1",
    "VALUE_OBSERVED": 51
  },
  {
    "COMPOUND": "C[C@H](O)[C@@H]1C(=O)N2C(C(=O)O)=C(S/C=C\\CN)C[C@H]12",
    "VALUE_OBSERVED": 40
  }
]

====

assay: Stability in kidney preparations (pig); assay type: in vitro ADME; conditions: 100 mg/ml solubilised in 5% Triton X-100, * racemic compounds: figures based on stability of bio-active enantiomer
Entries and their % left after 60 minutes Pig Kidney Acetone Powder
VALUE_KIND: % left after 60 minutes Pig Kidney Acetone Powder (%)

[
  {
    "COMPOUND": "C[C@H](O)[C@@H]1C(=O)N2C(C(=O)O)=C(S/C=C\\CN)C[C@H]12",
    "VALUE_OBSERVED": 39
  },
  {
    "COMPOUND": "C/C(=C/CN)SC1=C(C(=O)O)N2C(=O)[C@@H]([C@H](C)O)[C@H]2C1",
    "VALUE_OBSERVED": 78
  },
  {
    "COMPOUND": "C/C(=C\\CN)SC1=C(C(=O)O)N2C(=O)[C@H]([C@@H](C)O)[C@H]2C1 (racemic)",
    "VALUE_OBSERVED": 36
  },
  {
    "COMPOUND": "C[C@H](O)[C@@H]1C(=O)N2C(C(=O)O)=C(S/C=C/CN)C[C@H]12",
    "VALUE_OBSERVED": 6
  },
  {
    "COMPOUND": "C[C@@H](O)[C@H]1C(=O)N2C(C(=O)O)=C(S/C=C\\CN)C[C@H]12 (racemic)",
    "VALUE_OBSERVED": 40
  },
  {
    "COMPOUND": "C/C(=C\\CN)SC1=C(C(=O)O)N2C(=O)[C@@H]([C@H](C)O)[C@H]2C1",
    "VALUE_OBSERVED": 38
  }
]

Origin of values: patent EP0105658A1
